These entries and their values trace back to patent US20120277143A1.

system.under.test: T1, human IL4 (human, UniProt P05112 25-153, biotinylated in the SPR and competition assays (sites not given))
T1 construct: Peprotech #200-04, mature protein produced in E. coli; also called hIL4; Interleukin 4
T1 sequence: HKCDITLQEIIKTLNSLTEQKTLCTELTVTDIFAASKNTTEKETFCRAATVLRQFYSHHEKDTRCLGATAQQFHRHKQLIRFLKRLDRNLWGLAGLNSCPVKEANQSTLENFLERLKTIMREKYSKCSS
assay.name: SPR ProteOn, biotin-IL4 on neutravidin chip, 1:1 fit
Threshold 0.1 nM: Kd strictly smaller gives YES, otherwise NO.

Q: Report whether reported Kd is lower than 0.1 nM (strictly) for C06_28E5 (designed binder, ankyrin repeat protein; His-tagged, IMAC-purified; also called benchmark AR protein) DLGKKLLEAARAGQDDEVRILMANGADVNAADDSGITPLHLAAEDGHLEIVEVLLKYGADVNAQDNLGDTPLHLAAWTGHLEIVEVLLKNGADVNAYDISGITPLHLAAFYGHLEIVEVLLKHGADVNAQDKFGKTAFDISIDNGNEDLAEILQKLN
Ans: YES

Q: // query: C06_44C12 (designed binder, ankyrin repeat protein; His-tagged, IMAC-purified) DLGKKLLEAASAGQDDEVHILMANGADVNALDDSGYTPLHLAAEDGHLEIVEVLLKHGADVNAADRMGDTPLHLAAFVGHLEIVEVLLKYGADVNAVDLAGVTPLHVAAFYGHLEIVEVLLKYGADVNAQDKFGKTAFDISIDNGNEDLAEILQKLN
Ans: YES

Q: Again, but for C06_50E5 (designed binder, ankyrin repeat protein; His-tagged, IMAC-purified) DLGKKLLEAARAGQDDEVRILMANGADANATDDWGDTLLHLAATDGHLEIVEVLLKNGADVNAIDAMGMTPLHLAAVYGYLEIVEVLLKNGADVNAMDFSGFTPLHLAAFSGHLEIVEVLLKYGADVNAQDKFGKTAFDISIDNGNEDLAEILQKLN
Ans: NO

Q: Record: C06_48F3 (designed binder, ankyrin repeat protein; His-tagged, IMAC-purified) DLGKKLLEAARAGQDDEVRILMANGADVNAFDDSGLTPLHLAADDGHLEIVEVLLKHGADVNAADRMGDTPLHLAAFVGHLEIVEVLLKYGADVNAVDLAGVTPLHVAAFYGHLEIVEVLLKYGADVNAQDKFGKTAFDISIDNGNEDLAEILQKLN
Ans: NO

Q: # repeat for C06_28D4 (designed binder, ankyrin repeat protein; His-tagged, IMAC-purified) DLGKELLEAASAGQDDEVHILMANGADVNAVDHDGFTPLHLAAADGHLEIVEVLLKHGADVNADDNFGWTPLHLAAFFGHLEIVEVLLKHGADVNAKDQTGLTPLHLAAVDGHLEIVEVLLKNGADVNAQDKFGKTAFDISIDNGNEDLAEILQKLN
Ans: YES

Q: Same question, C06_42A11 (designed binder, ankyrin repeat protein; His-tagged, IMAC-purified) DLGKKLLEAASVGQDDEVHILMANGADVNATDAWGLTPLHLAALLGHLEIVEVLLKHGADVNAHDETGFTPLHLAAVEGHLEIVEVLLKYGADVNASDILGRTPLHLAANFGHLEIVEVLLKHGADVNAQDKFGKTAFDISIDNGNEDLAEILQKLN this time
Ans: YES

Q: Same for C06_6E9 (designed binder, ankyrin repeat protein; His-tagged, IMAC-purified) DLGKKLLEAARAGQDDEVRILMANGADVNAIDSDGTTPLHLAAMDGHLEIVEVLLKYGADVNAVDWNGDTPLHLAAVDGHLEIVEVLLKYGADVNAQDNLGDTPLHLAAYYGHLEIVEVLLKHGADVNASDFHGITPLHLAAFSGHLEIVEVLLKYGADVNAQDKFGKTAFDISIDNGNEDLAEILQKLN
Ans: YES

Q: Item: C06_54C2 (designed binder, ankyrin repeat protein; His-tagged, IMAC-purified) DLGKKLLEAARAGQDDEVRILMANGADVNATDDWGDTLLHLAATDGHLEIVEVLLKNGADVNAIDAMGMTPLHLAAVYGYLEIVEVLLKNGADVNAMDFSGFTPLHLTAFSGHLEIVEVLLKYGADVNAQDKFGKTAFDISIDNGNEDLAEILQKLN
Ans: NO

Q: Now consider C06_26H2 (designed binder, ankyrin repeat protein; His-tagged, IMAC-purified) DLGKKLLEAARAGQDDEVRILMANGADVNAYDSSGDTPLHVAAIDGHLEIVEVLLKHGADVNASDASGDTPLHLAADFGHLKIVEVLLKHGADVNAEDMIGITPLHLAAYNGHLEIVEVLLKNGADVNASDVHGFTPLHLAAFIGHLGIVEVLLKYDADVNAQDKFGKTAFDISIDNRNEDLAEILQKLN and answer again.
Ans: YES

Q: Again, but for C06_17A11 (designed binder, ankyrin repeat protein; His-tagged, IMAC-purified) DLGKKLLEAARAGQDDEVRILMANGADVNAIDEWGDTPLHLAAIEGHLEIVEVLLKYGADVNASDAMGMTPLHLAAVYGYLEIVEVLLKNGADVNAMDFSGFTPLHLAAFSGHLEIVEVLLKYGADVNAQDKFGKTAFDISIDNGNEDLAEILQKLN
Ans: NO

Q: Ok, now C06_43G2 (designed binder, ankyrin repeat protein; His-tagged, IMAC-purified) DLGKKLLEAARAGQDDEVRILMANGADVNAKDVTGETPLHLASWEGHLEIVEVLLKHGADVNAQDLFGITPLHLAAATDGHLEIVEVLLKNGADVNATDSNGFTPLHLAASYGHLEIVDVLLKNGADVNAHDFDGFTPLHLAASWGHLEIVEVLLKYGADVNAQDKFGKTAFDISIDNGNEDLAEILQKLN
Ans: YES
